# assay-remarks: in vitro
# condition: human
viability reference
readout: viability (%)

input-smiles	readout	readout-number
CC(=O)O[C@H]1[C@H]2O[C@]23[C@@H]2CC[C@@H]4C[C@@H](O)CC[C@]4(C)[C@H]2CC[C@]3(C)[C@H]1c1ccc(=O)oc1	viability	39.7
C[C@]12CC[C@H](O)C[C@H]1CC[C@@H]1[C@@H]2CC[C@]2(C)[C@@H](c3ccc(=O)oc3)C[C@H]3O[C@]132	viability	37.9
C[C@]12CC[C@H](O)C[C@H]1CC[C@@H]1[C@@H]2CC[C@]2(C)[C@@H](c3ccc(=O)oc3)CC[C@]12O	viability	37.2
